Test system: HEK-293T
PROCEDURE DETAILS: Multiplex assay against HEK293T
Type: toxicity, cell-based
TEST PARAMETERS: human, 24 h, 10 µM, compound concentration 10 uM, replicate 2
Population Mitotic Cells (%) below 50% gives not satisfied; Population Mitotic Cells (%) at or above it gives satisfied.

{"columns": ["MOLECULE", "CATEGORY"],
 "data": [
  ["O=S(=O)(c1ccccc1)c1cnc2c(N3CCNCC3)cccc2c1 [INTEPIRDINE]", "not satisfied"],
  ["Oc1c(CN2CCN(c3ccccn3)CC2)cc(Cl)c2cccnc12", "not satisfied"],
  ["COc1cc(C(=O)N(CCCc2ccccc2)Cc2ccc(CC(=O)O)cc2)cc(OC)c1C", "satisfied"],
  ["CC(=O)NCCc1c(Cc2ccccc2)[nH]c2ccccc12 [LUZINDOLE]", "satisfied"],
  ["CCCN1CCC[C@@H]2Cc3n[nH]cc3C[C@H]21.Cl [QUINPIROLE HYDROCHLORIDE]", "satisfied"],
  ["Cc1ccc(F)cc1C(=O)Nc1ccc(C(=O)N2Cc3cccn3Cc3ccccc32)c(Cl)c1 [LIXIVAPTAN]", "not satisfied"],
  ["c1cc(OCCCN2CCCCC2)ccc1CN1CCCCC1 [JNJ-5207852]", "not satisfied"],
  ["CN1CCN(c2nc3cc(C(F)(F)F)ccc3n3cccc23)CC1.O=C(O)/C=C\\C(=O)O.O=C(O)/C=C\\C(=O)O", "not satisfied"],
  ["Cl.Clc1ccc2nsnc2c1NC1=NCCN1 [TIZANIDINE HYDROCHLORIDE]", "satisfied"],
  ["CSCC[C@H](NC=O)C(=O)N[C@@H](CC(C)C)C(=O)N[C@@H](Cc1ccccc1)C(=O)O", "satisfied"]
]}

Q: Hello, I need to know if CCCC(CCC)C(=O)O [VALPROIC ACID] has measured Population Mitotic Cells (%) not below 50%. Thanks!
A: satisfied

Q: Hello, I need to know if C[C@@H]1C[C@H]2[C@@H]3CCC4=CC(=O)C=C[C@]4(C)[C@@]3(F)[C@@H](O)C[C@]2(C)[C@@]1(O)C(=O)CO [DEXAMETHASONE] has measured Population Mitotic Cells (%) not below 50%. Thanks!
A: satisfied

Q: Hello, I need to know if CCOc1c2c(c(OCC)c3ncccc13)CN(c1ccc(CS(=O)(=O)NC(=O)Cc3ccccc3OC)cc1C)C2=O has measured Population Mitotic Cells (%) not below 50%. Thanks!
A: satisfied

Q: Hello, I need to know if CNC[C@H](O)c1ccc(O)c(O)c1 [EPINEPHRINE] has measured Population Mitotic Cells (%) not below 50%. Thanks!
A: not satisfied

Q: Hello, I need to know if CN1CCN2c3ncccc3Cc3ccccc3C2C1 (centres undefined) [MIRTAZAPINE] has measured Population Mitotic Cells (%) not below 50%. Thanks!
A: satisfied

Q: Hello, I need to know if COc1c(C)cc(NC(=O)c2nn(Cc3ccc(F)cc3)c3c2CN(C(=O)c2ccc[nH]2)C[C@]3(C)C(N)=O)cc1C has measured Population Mitotic Cells (%) not below 50%. Thanks!
A: not satisfied

Q: Hello, I need to know if Cc1ccc(-c2ccc(F)cc2COc2ccc(CCC(=O)O)cc2)cc1 has measured Population Mitotic Cells (%) not below 50%. Thanks!
A: not satisfied
